# MEASUREMENT_DESCRIPTION: in vitro
MEASUREMENT_NAME: CC50 at 3 days

* NC12CC3CC(CC(C3)C1)C2 [AMT, Amantadine, reference compound] | > 100 µM

====

# MEASUREMENT_DESCRIPTION: Stability of OSC-GCDIs in phosphate buffers
# Assay type: physicochemical
# REPORTED_CONDITIONS: sodium phosphate buffer, pH 2, phosphate buffer pH 2.0, 37 °C; read-out: T1/2
This listing pairs compounds with measured half-life at 100 μM.
MEASUREMENT_NAME: half-life at 100 μM

• CCC(CC)O[C@@H]1C=C(C(=O)O)C[C@H](N=C(N2C(=O)c3ccccc3C2=O)N2C(=O)c3ccccc3C2=O)[C@H]1NC(C)=O = 1.57 h
• CCC(CC)O[C@@H]1C=C(C(=O)O)C[C@H](N=C(N2C(=O)CC(C)(C)C2=O)N2C(=O)CC(C)(C)C2=O)[C@H]1NC(C)=O = > 24 h
• CCCCC1CC(=O)N(C(=N[C@H]2CC(C(=O)O)=C[C@@H](OC(CC)CC)[C@@H]2NC(C)=O)N2C(=O)CC(CCCC)C2=O)C1=O (stereo partly shown) = > 24 h
• CCC(CC)O[C@@H]1C=C(C(=O)O)C[C@H](N=C(N2C(=O)[C@H]3CCCC[C@H]3C2=O)N2C(=O)[C@H]3CCCC[C@H]3C2=O)[C@H]1NC(C)=O = > 24 h

====

# MEASUREMENT_DESCRIPTION: In vitro microsomal stability
# Format: in vitro ADME, rat
# REPORTED_CONDITIONS: Sprague Dawley, microsomes, pH 7.4; rat liver microsome, 100 μM, 37 °C
MEASUREMENT_NAME: half-life (h)

- CCC(CC)O[C@@H]1C=C(C(=O)O)C[C@H](NC(=N)N)[C@H]1NC(C)=O [GOC, guanidino oseltamivir carboxylate, reference compound]: 116

====

This listing pairs compounds with measured half-life at 100 μM.
# MEASUREMENT_DESCRIPTION: Stability of OSC-GCDIs in phosphate buffers
# Assay type: physicochemical
# REPORTED_CONDITIONS: sodium phosphate buffer, pH 7.4, phosphate buffer pH 7.4, 37 °C; read-out: T1/2
MEASUREMENT_NAME: half-life at 100 μM (h)

• CCC(CC)O[C@@H]1C=C(C(=O)O)C[C@H](N=C(N2C(=O)CC(C)(C)C2=O)N2C(=O)CC(C)(C)C2=O)[C@H]1NC(C)=O = 8.25
• CCCCC1CC(=O)N(C(=N[C@H]2CC(C(=O)O)=C[C@@H](OC(CC)CC)[C@@H]2NC(C)=O)N2C(=O)CC(CCCC)C2=O)C1=O (stereo partly shown) = 7.7
• CCC(CC)O[C@@H]1C=C(C(=O)O)C[C@H](N=C(N2C(=O)c3ccccc3C2=O)N2C(=O)c3ccccc3C2=O)[C@H]1NC(C)=O = 0.235
• CCC(CC)O[C@@H]1C=C(C(=O)O)C[C@H](N=C(N2C(=O)[C@H]3CCCC[C@H]3C2=O)N2C(=O)[C@H]3CCCC[C@H]3C2=O)[C@H]1NC(C)=O = 1.36

====

This listing pairs compounds with measured Papp at 500 μM.
# MEASUREMENT_DESCRIPTION: in vitro
# Type: in vitro ADME
# REPORTED_CONDITIONS: PAMPA
MEASUREMENT_NAME: Papp at 500 μM (×10⁻⁶ cm/s)

• CCC(CC)O[C@@H]1C=C(C(=O)O)C[C@H](N=C(N2C(=O)c3ccccc3C2=O)N2C(=O)c3ccccc3C2=O)[C@H]1NC(C)=O = 3.88
• CCOC(=O)C1=C[C@@H](OC(CC)CC)[C@H](NC(C)=O)[C@@H](N)C1 [OS-P, Oseltamivir phosphate, reference compound] = 2.27
• CCC(CC)O[C@@H]1C=C(C(=O)O)C[C@H](N=C(N2C(=O)[C@H]3CCCC[C@H]3C2=O)N2C(=O)[C@H]3CCCC[C@H]3C2=O)[C@H]1NC(C)=O = 2.99
• CCCCC1CC(=O)N(C(=N[C@H]2CC(C(=O)O)=C[C@@H](OC(CC)CC)[C@@H]2NC(C)=O)N2C(=O)CC(CCCC)C2=O)C1=O (some centres unmarked) = 4.5
• CCC(CC)O[C@@H]1C=C(C(=O)O)C[C@H](N=C(N2C(=O)CC(C)(C)C2=O)N2C(=O)CC(C)(C)C2=O)[C@H]1NC(C)=O = 1.66

Data credit: paper PMC11363325
